Tested on: polyclonal serum IgM binding to gp120 from HIV-1SF2
Design: species or system human
CONDITION_PARAMETERS: gp120 elisa
Response field label takes yes (1) when RESIDUAL BINDING TO gp120 (% OF CONTROL), 10.0 μM PEPTIDE is strictly below 20 % OF CONTROL and no (0) in all other cases.

INSERT INTO results (residue_sequence, qualitative_label) VALUES
  ('KGSCKNVSTVQCTHGIRPVV [Peptide 1960, gp160 peptide 241-260, HIV-1 MN]', 'yes (1)'),
  ('RQAHCNISRAKWNDTLRQIV [Peptide 1988, gp160 peptide 331-350, HIV-1 MN]', 'no (0)'),
  ('LKCNDKKFSGKGSCKNVSTV [Peptide 1959, gp160 peptide 231-250, HIV-1 MN]', 'yes (1)'),
  ('TKAKRRVVQREKRAAIGALP [Peptide 2015, gp160 peptide 501-520, HIV-1 MN]', 'no (0)'),
  ('KWNDTLRQIVSKLKEQFKNK [Peptide 1989, gp160 peptide 341-360, HIV-1 MN]', 'no (0)');

---

Tested on: monoclonal IgM VNG binding to gp120
Design: species or system human
CONDITION_PARAMETERS: gp120 elisa
Rule: RESIDUAL BINDING TO gp120 (% OF CONTROL), 1.0 μM PEPTIDE below 50 % OF CONTROL gives 1 (yes). Equal to or above 50 % OF CONTROL gives 0 (no).

INSERT INTO results (residue_sequence, qualitative_label) VALUES
  ('TKAKRRVVQREKRAAIGALP [Peptide 2015, gp160 peptide 501-520, HIV-1 MN]', '0 (no)'),
  ('MRVKGIRRNYQHWWGWGTM [Peptide 1919, gp160 peptide, amino acids 1-20, HIV-1 MN]', '1 (yes)'),
  ('CTRPNYNKRKRIHIGPGRAF [Peptide 1985, gp160 peptide 301-320, HIV-1 MN]', '1 (yes)'),
  ('KGSCKNVSTVQCTHGIRPVV [Peptide 1960, gp160 peptide 241-260, HIV-1 MN]', '0 (no)');

---

Quick reference: RESIDUAL BINDING TO gp120 (% OF CONTROL), 10.0 μM PEPTIDE of the listed items.
Test system: monoclonal IgM VIN binding to gp120
Parameters: species or system human
CONDITION_PARAMETERS: gp120 elisa
MEASURED_QUANTITY: RESIDUAL BINDING TO gp120 (% OF CONTROL), 10.0 μM PEPTIDE

INSERT INTO results (residue_sequence, data_value) VALUES
  ('GKAMYAPPIEGQIRCSSNIT [Peptide 2008, gp160 peptide 431-450, HIV-1 MN]', 15.7),
  ('TKAKRRVVQREKRAAIGALP [Peptide 2015, gp160 peptide 501-520, HIV-1 MN]', 6.5),
  ('MRVKGIRRNYQHWWGWGTM [Peptide 1919, gp160 peptide, amino acids 1-20, HIV-1 MN]', 14.8),
  ('KWNDTLRQIVSKLKEQFKNK [Peptide 1989, gp160 peptide 341-360, HIV-1 MN]', 13.4),
  ('RQAHCNISRAKWNDTLRQIV [Peptide 1988, gp160 peptide 331-350, HIV-1 MN]', 12.2),
  ('KQIINMWQEVGKAMYAPPIE [Peptide 2007, gp160 peptide 421-440, HIV-1 MN]', 21.2),
  ('KGSCKNVSTVQCTHGIRPVV [Peptide 1960, gp160 peptide 241-260, HIV-1 MN]', 5.8),
  ('LKCNDKKFSGKGSCKNVSTV [Peptide 1959, gp160 peptide 231-250, HIV-1 MN]', 8.0);

Taken from patent US5691135A.
